- Tested on: Zika virus NS2B-NS3 protease (unlinked complex)
- Assay Name: Primary screen GU Rhodamine qHTS for Zika virus inhibitors: Unlinked NS2B-NS3 protease assay (AID 1347159); further: on the % scale 0 is the no-effect control and ±100 the full control effect; nearly all actives have a fitted effect of over 60% in size
- Condition Context: Recombinant ZIKV NS2B-NS3 protease, Rhodamine110 substrate fluorescence; series mostly up to 107 µM
Results filed as inconclusive are left out. Activity calls are given as the source filed them. The call rests on the fitted dose curve; in most records, active means well fitted inhibition curve with a large enough effect; inconclusive means small, poorly fitted or top-dose-only effect; inactive means no such curve, though single readings can be large or run the other way. Where a SMILES comes first, the peptide text is derived from it. [ ]: non-standard residue; d: D form. ξ: configuration not given here. ξTyr(βOH) = NC(C(=O)O)C(O)c1ccc(O)cc1
Just give me one of these, please: 1 for active, -1 for inactive

{"Compound": "CSCC1OC(n2cnc3c(N)ncnc32)C(O)C1O (stereo not given)", "Study Target": "Zika virus NS2B-NS3 protease (unlinked complex)", "Classification": -1}

Assay result, entry COc1ccccc1CN[C@H]1CCCN[C@H]1c1ccccc1 — outcome?
-1

Hi, sorry to bother you, what did the test record for CC1(C)Oc2ncnc(N)c2N=C1c1ccc(C2CCC(CC(=O)O)CC2)cc1 (stereo not given) ?
-1

How was COc1cc2nc(=NC(=O)c3cccnc3)n3c(c2cc1OC)NCC3 classified in this test?
-1

Hi, do you know how CC1(C)CC[C@]2(C(=O)O)CC[C@]3(C)C(=CCC4[C@@]5(C)C[C@H](O)[C@H](O[C@@H]6O[C@H](CO)[C@@H](O)[C@H](O)[C@H]6O)[C@@](C)(CO)C5[C@H](O)C[C@]43C)[C@@H]2C1 (stereo not given in full) came out in this test?
-1

What did the test return for Cc1c(NC(=O)N2CCOCC2)ccc2c1c1ccccc1n2C(C)C ?
-1

Tell me the recorded outcome of this test for C[C@H]1CC[C@@]2(OC1)O[C@H]1CC3C4CC[C@H]5C[C@@H](O[C@@H]6O[C@H](CO)[C@H](O[C@@H]7O[C@H](CO)[C@@H](O)[C@H](O[C@@H]8OC[C@@H](O)[C@H](O)[C@H]8O)[C@H]7O[C@@H]7O[C@H](CO)[C@@H](O)[C@H](O)[C@H]7O)[C@H](O)[C@H]6O)[C@H](O)C[C@]5(C)C4=CC(=O)[C@]3(C)[C@H]1[C@@H]2C (stereo not given in full) .
-1

Returns: the outcome recorded for CC(C)C1NC(=O)CNC(=O)C2CCCN2C(=O)C(Cc2c[nH]c3ccccc23)NC(=O)CNC(=O)C(C(O)c2ccc(O)cc2)NC(=O)CNC1=O (stereo not given) (cyclo(G[ξTyr(βOH)]GWPGV); configuration not given here) in this assay.
-1

Each compound tested received a call. Report the one for COC(=O)C1=COC(OC2OC(CO)C(O)C(O)C2O)C2C(COC(=O)/C=C/c3ccc(O)cc3)C(O)C(O)C12 (stereo not given) .
-1

* * *

- Test system: HEK293
- Assay Name: Cytotoxic Profiling of Annotated Libraries Using Quantitative High-Throughput Screening (AID 1296008); further: on the % scale 0 is the no-effect control and ±100 the full control effect; nearly all actives have a fitted effect of over 60% in size
- Condition Context: Five cell lines viability, CellTiter-Glo ATP luminescence, 48-72 h; stronger effect = lower value
Results filed as inconclusive are left out.
Assay Endpoint: max response (%)
One number for each entry, in %.

Examples with their reported max response follow.
{"Compound": "C=C1C2(C)CC3C4(C)C=CC(=O)OC(C)(C)C4CCC3(C)C1(C(=O)OC)C(=O)C(C)(O)C2=O (stereo not drawn)", "Study Target": "HEK293", "Assay Endpoint": "max response", "Value Reported": -101}
{"Compound": "COc1ccccc1CN[C@H]1CCCN[C@H]1c1ccccc1", "Study Target": "HEK293", "Assay Endpoint": "max response", "Value Reported": -1.91}
{"Compound": "CC(C)NC(=O)c1ccc(C#Cc2ccncc2)cn1", "Study Target": "HEK293", "Assay Endpoint": "max response", "Value Reported": -19.1}

Consider the following items and state reported max response for each.
1. COc1cc(/C=C/C(=O)O[C@@H]2C[C@](O)(C(=O)O)C[C@@H](O)[C@H]2O)ccc1O
2. O=C(O)c1ccnc(-c2cc(C(=O)NCCc3ccccc3)ccn2)c1
3. N#CN1CCC[C@@H](n2nc(-c3ccc(Oc4ccc(F)cc4F)cc3)c(C(N)=O)c2N)C1
4. COC(=O)[C@]1(C)CCC[C@@]2(C)[C@@H]3CC[C@@H]4C[C@@]3(CC[C@@H]21)C[C@H]4C(=O)O

1. -0.759
2. -13.9
3. -4.05
4. 0.134

Hi team, please reply with max response for each item in this list.
1. COC(=O)C1(C)CCCC2(C)c3ccc(C(C)C)cc3C(O)C(O)C12 (stereo not drawn)
2. COc1c(C)c(OCC=C(C)C)cc2c1CNC2=O
3. C=C1C(O)CC2C(C(=O)O)=COC(OC3OC(CO)C(O)C(O)C3OC(=O)/C=C\c3ccc(O)cc3)C12 (stereo not drawn)
4. CC1OC(OC2CCC3(C)C(CCC4(C)C3C=CC35OCC6(CCC(C)(C)CC63)CCC45C)C2(C)CO)C(OC2OC(CO)C(O)C(O)C2O)C(O)C1OC1OC(CO)C(O)C(O)C1O (stereo not drawn)
5. Cn1cc(CCn2cnc(-c3cnn(C)c3)c2-c2ccc(C#N)cc2)cn1
6. C=C(C(=O)O)[C@@H]1CC[C@H](C)[C@@H]2CC(=O)C(C)=C2C1
7. Cc1cc(-n2c(=O)[nH]c(=O)n(C)c2=O)ccc1Oc1ccc(SC(F)(F)F)cc1

[-25.7, -5.13, -11.5, -1.62, 0.036, 3.15, 4.1]

List max response for every entry below, keeping the order given.
1. COC(=O)C1=CO[C@@H](O[C@@H]2O[C@H](CO[C@@H]3O[C@H](CO)[C@@H](O)[C@H](O)[C@H]3O)[C@@H](O)[C@H](O)[C@H]2O)[C@@H]2C(CO)=CC[C@H]12
2. CC1(C)C2CCC1(C)C(OC(=O)C(O)(CC(=O)O)CC(=O)O)C2 (stereo not drawn)
3. CC1CCC2(C(=O)O)CCC3(C)C(=CCC4C5(C)CCC(O)C(C)(C(=O)O)C5CCC43C)C2C1(C)O (stereo not drawn)
4. Cc1sc(C)c(C(=O)NC2(c3ccc(C(=O)O)cc3)CC2)c1Cc1ccc(C(F)(F)F)cc1

1: 1.28; 2: -0.502; 3: -11.5; 4: -5.46

* * *

- System: Tov-21-G
- Assay Name: Primary qHTS to identify gynecologic anti-cancer compounds using libraries of approved drugs and bioactive compounds (AID 1345084); further: on the % scale 0 is the no-effect control and ±100 the full control effect; nearly all actives have a fitted effect of over 55% in size
- Condition Context: Gynecologic cancer cell panel viability, ATPlite luminescence, 48 h; series mostly up to 57.5 µM
Inconclusive results are not listed. The source made the active and inactive calls. The call rests on the fitted dose curve; in most records, active means well fitted cell-killing curve with a large enough effect; inconclusive means small, poorly fitted or top-dose-only effect, or effect the other way; inactive means flat fitted curve, though single readings scatter.
Assay Endpoint: activity change, negative = cytotoxicity

Short answer please: activity change, negative = cytotoxicity, Tov-21-G, entry C[C@@H]1O[C@@H](O[C@H]2[C@H](O[C@H]3[C@H](O[C@H]4CC[C@@]5(C)C(CC[C@]6(C)C5CC=C5[C@@H]7CC(C)(C)C[C@@H](O)[C@]7(C)CC[C@]56C)[C@@]4(C)CO)O[C@H](C(=O)O)[C@@H](O)[C@@H]3O)O[C@H](C(=O)O)[C@H](O)[C@@H]2O)[C@H](O)[C@H](O)[C@H]1O (some centres not stated)
13.2% [at 11.6 µM] (inactive)

* * *

- Assay Name: Primary fluorescence-based thiol-reactive (MSTI) qHTS assay for identification of artifact compounds. (AID 1845221);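 further: thiol-reactive compounds lower the probe fluorescence signal; nearly all actives have a fitted effect of over 65% in size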
- Condition Context: MSTI thiol-reactivity probe, 1 h; series mostly up to 53.8 µM
Inconclusive results are not listed. Calls of active or inactive are those of the source. Calls follow the shape of the dose curve; as a rule, active = well fitted inhibition curve with a large enough effect; inconclusive = small, poorly fitted or top-dose-only effect; inactive = no such curve, though single readings can be large or run the other way.
Assay Endpoint: activity change, negative = thiol reactive

Here are 5 molecules together with their reported answers.
{"Molecule": "COc1cc(Nc2nc3c(s2)CCCC3c2ccccc2)ccc1-n1cnc(C)c1 (stereo unspecified)", "Value Reported": "-6.96% [at 11.5 µM] (inactive)"}
{"Molecule": "O=C(Nc1ccn(Cc2c(F)cccc2C(F)(F)F)n1)c1c(F)cccc1F", "Value Reported": "27.2% [at 11.5 µM] (inactive)"}
{"Molecule": "C[C@@H]1O[C@@H](OC2C(CO)OC(OCC3OC(OC(=O)[C@]45CCC(C)(C)CC4C4=CCC6[C@@]7(C)CC[C@@H](O)[C@](C)(C(=O)O)C7CC[C@@]6(C)[C@]4(C)CC5)C(O)C(O)C3O)C(O)C2O)[C@H](O)[C@H](O)[C@H]1O (stereo partly specified)", "Value Reported": "268% [at 11.5 µM] (inactive)"}
{"Molecule": "C[C@@H]1O[C@@H](O[C@H]2[C@H](O[C@H]3[C@H](O[C@H]4CC[C@@]5(C)C(CC[C@]6(C)C5CC=C5[C@@H]7CC(C)(C)CC(=O)[C@]7(C)CC[C@]56C)[C@@]4(C)CO)O[C@H](C(=O)O)[C@@H](O)[C@@H]3O)O[C@H](CO)[C@H](O)[C@@H]2O)[C@H](O)[C@H](O)[C@H]1O (stereo partly specified)", "Value Reported": "40% [at 11.5 µM] (inactive)"}
{"Molecule": "NC[C@@H]1O[C@@H](O[C@@H]2[C@@H](O[C@@H]3O[C@H](CO)[C@@H](O)[C@H]3O)[C@H](O)[C@@H](N)C[C@H]2N)[C@@H](N)[C@H](O)[C@H]1O", "Value Reported": "-13.5% [at 11.5 µM] (inactive)"}

Read the next record carefully.
// returns reported activity change, negative = thiol reactive for input CC1(C)CC[C@]2(C(=O)OC3OC(CO)C(O)C(O)C3O)CC[C@]3(C)C(=CCC4[C@@]5(C)C[C@@H](O)[C@H](OC6OC(C(=O)O)C(O)C(O)C6O)C(C)(C)C5CC[C@]43C)[C@@H]2C1 (stereo partly specified)
309% [at 11.5 µM] (inactive)

Hello, the source for this data is PubChem BioAssay (NCATS), in case you need it.
